Numbers sourced from ChEMBL document CHEMBL1201862.

- Test system: RXF 393
- Assay Summary: NCI tumour cell line growth inhibition, 48 h
The source made the active and inactive calls. No stated cut-off is given here; in the data, active = GI50 up to about 1.1 µM and inactive = higher.
Metric: GI50

Reference set (4 entries):
Compound: CCCCCCCCCCCCCP(=O)(NCC(N)=O)OCC (stereo unspecified)
GI50: 22.5 µM (inactive)

Compound: CN(C)CCCCN1CCc2c(n(C)c3ccccc23)C1=O
GI50: 31.5 µM (inactive)

Compound: CC1(C)OCC2OC3([C@@H]4OC(C)(C)O[C@H]4CO)OC(C)(C)OC3C2O1 (stereo partly specified)
GI50: > 100 µM (inactive)

Compound: Cc1cc(N(CCC#N)CCC#N)ccc1C(/N=N/c1ccc(Cl)cc1)=N\NC(=O)c1ccccc1
GI50: 49.2 µM (inactive)

In: Dear colleague, I am looking for the recorded GI50 of the following compound: O=C(Cn1c2ccc(Br)cc2c2nc3ccccc3nc21)NNC(=O)NC1CCCCC1
Out: 78.2 µM (inactive)

In: Dear colleague, I am looking for the recorded GI50 of the following compound: COc1ccc(/C=C2\N/C(=N/N)N=C2Cl)cc1
Out: > 100 µM (inactive)

----------
GI50 values by entry
- Tested on: TK-10
- Assay Summary: NCI tumour cell line growth inhibition, 48 h
The source made the active and inactive calls. No stated cut-off is given here; in the data, active = GI50 up to about 1.1 µM and inactive = higher.

Compound: Cc1ccc2c(O)cc(-c3ccc(Cl)cc3)nc2n1
GI50: 21.2 µM (inactive)
--
Compound: COC(=O)[C@H]1C[C@H]1NC(=O)C(CC(=O)OCc1ccccc1)NC(=O)OCc1ccccc1 (stereo partly specified)
GI50: 74.6 µM (inactive)
--
Compound: O=C1c2ccccc2CC12Cc1cc3c(cc1C2)CCC3
GI50: > 100 µM (inactive)
--
Compound: CC12C(=O)N(CCN)C(=O)C1C1c3ccccc3C2c2ccccc21 (stereo unspecified)
GI50: > 100 µM (inactive)
--
Compound: CN(C)c1ccc(/C=C(/NC(=O)c2ccccc2)c2nc3cc(Cl)ccc3[nH]2)cc1
GI50: 64.4 µM (inactive)

In: Dear colleague, I am looking for the recorded GI50 of the following compound: COc1ccc2nc3n(c2c1)CCc1cc(OC)c(OC)cc1-3
Out: 86.3 µM (inactive)

----------
- Test system: IGROV-1
- Assay Summary: NCI tumour cell line growth inhibition, 48 h
Calls of active or inactive are those of the source. No stated cut-off is given here; in the data, active = GI50 up to about 1.1 µM and inactive = higher.
Tick one outcome: active, inactive

Please review the entries below; each comes with its answer.
Molecule: Cn1c(=O)n(C2(C)C[Se]C2)c2ccccc21
Assigned Class: inactive
//
Molecule: Nc1nc(N)c2ncn(CC(CO)CC(c3ccccc3)P(=O)(O)O)c2n1 (centres undefined)
Assigned Class: inactive
//
Molecule: OCc1cc2c([nH]c3ccccc32)c(C(O)CO)n1 (centres undefined)
Assigned Class: inactive
//
Molecule: COC(=O)[C@H]1C[C@H]1NC(=O)C(CC(=O)OCc1ccccc1)NC(=O)OCc1ccccc1 (some centres undefined)
Assigned Class: inactive
//
Molecule: O=C1/C(=C/c2ccco2)NC(=S)N1CN1CCCCC1
Assigned Class: inactive

In: Hello, I am checking results. What call was entered for NC(=O)c1ccc(N)nc1 [6-AMINONICOTINAMIDE] ?
Out: inactive

In: Hello, I am checking results. What call was entered for CC(C)C(C/C=C1\CC(CO)(COC(=O)c2ccccc2)OC1=O)C(C)C (centres undefined) ?
Out: inactive

In: Hello, I am checking results. What call was entered for O=C(NCCCCCCCCNC(=O)c1cccc2ccccc12)c1cccc2ccccc12 ?
Out: inactive

In: Hello, I am checking results. What call was entered for COC1C2c3cc4c(cc3CC(C#N)(c3ccccc32)N1C(=O)c1ccccc1)OCO4 (centres undefined) ?
Out: inactive

In: Hello, I am checking results. What call was entered for CC(C)C1=CCC2C(=C1)CCC1C(C)(C(=O)O)CCCC21C (centres undefined) ?
Out: inactive

In: Hello, I am checking results. What call was entered for C[C@@H]1C[C@H](O)[C@]2(O)O[C@@H]3C[C@@]4(C=O)[C@@H](CC[C@@H]5[C@@H]4CC[C@]4(C)[C@@H](C6=CC(=O)OC6)CC[C@]54O)C[C@H]3O[C@@H]2O1 [CALOTROPIN] ?
Out: active

In: Hello, I am checking results. What call was entered for CC(=O)c1ccc(NCN2C(=O)c3ccccc3C2=O)cc1 ?
Out: inactive

In: Hello, I am checking results. What call was entered for COc1ccc(/C(Cl)=C(\C=O)c2ccccc2)cc1OC ?
Out: inactive

In: Hello, I am checking results. What call was entered for COc1ccc2[nH]c3c(C)c4cc[n+](COC(=O)c5ccccc5)cc4c(C)c3c2c1 ?
Out: active
